- Tested on: HIV-1
- EXPERIMENTAL CONTEXT: Experiment 6; Day 7 HIV-1; 100 μM; HUT78 cells
Peptide text beside a SMILES is read from it.
Would you mind telling me the reported reduction (%) of each entry?
Answer in %, number only, no unit symbol.

IN: # lookup: reduction (%) of CC(C)[C@H](N)C(=O)NCC(=O)NCC(N)=O [VGG-NH2, valyl-glycyl-glycine amide] (H-Val-Gly-Gly-NH2)
OUT: 50

IN: # lookup: reduction (%) of CC(C)[C@H](NC(=O)CN)C(=O)NCC(N)=O [GVG-NH2, glycyl-valyl-glycine amide] (H-Gly-Val-Gly-NH2)
OUT: 25

IN: # lookup: reduction (%) of C[C@@H](O)[C@H](NC(=O)[C@@H]1CCCN1C(=O)[C@@H](N)CO)C(N)=O [SPT-NH2, seryl-prolyl-threonine amide] (H-Ser-Pro-Thr-NH2)
OUT: 25

IN: # lookup: reduction (%) of NCC(=O)N1CCC[C@H]1C(=O)NCC(N)=O [GPG-NH2, glycyl-prolyl-glycine amide] (H-Gly-Pro-Gly-NH2)
OUT: 97

IN: # lookup: reduction (%) of C[C@H](N)C(=O)N[C@@H](CO)C(=O)NCC(N)=O [ASG-NH2, alanyl-seryl-glycine amide] (H-Ala-Ser-Gly-NH2)
OUT: 25
